# key: entry, value: residual activity
TARGET_OR_TEST_SYSTEM: UniProt:P08922
Sequence (P08922 whole entry, looked up): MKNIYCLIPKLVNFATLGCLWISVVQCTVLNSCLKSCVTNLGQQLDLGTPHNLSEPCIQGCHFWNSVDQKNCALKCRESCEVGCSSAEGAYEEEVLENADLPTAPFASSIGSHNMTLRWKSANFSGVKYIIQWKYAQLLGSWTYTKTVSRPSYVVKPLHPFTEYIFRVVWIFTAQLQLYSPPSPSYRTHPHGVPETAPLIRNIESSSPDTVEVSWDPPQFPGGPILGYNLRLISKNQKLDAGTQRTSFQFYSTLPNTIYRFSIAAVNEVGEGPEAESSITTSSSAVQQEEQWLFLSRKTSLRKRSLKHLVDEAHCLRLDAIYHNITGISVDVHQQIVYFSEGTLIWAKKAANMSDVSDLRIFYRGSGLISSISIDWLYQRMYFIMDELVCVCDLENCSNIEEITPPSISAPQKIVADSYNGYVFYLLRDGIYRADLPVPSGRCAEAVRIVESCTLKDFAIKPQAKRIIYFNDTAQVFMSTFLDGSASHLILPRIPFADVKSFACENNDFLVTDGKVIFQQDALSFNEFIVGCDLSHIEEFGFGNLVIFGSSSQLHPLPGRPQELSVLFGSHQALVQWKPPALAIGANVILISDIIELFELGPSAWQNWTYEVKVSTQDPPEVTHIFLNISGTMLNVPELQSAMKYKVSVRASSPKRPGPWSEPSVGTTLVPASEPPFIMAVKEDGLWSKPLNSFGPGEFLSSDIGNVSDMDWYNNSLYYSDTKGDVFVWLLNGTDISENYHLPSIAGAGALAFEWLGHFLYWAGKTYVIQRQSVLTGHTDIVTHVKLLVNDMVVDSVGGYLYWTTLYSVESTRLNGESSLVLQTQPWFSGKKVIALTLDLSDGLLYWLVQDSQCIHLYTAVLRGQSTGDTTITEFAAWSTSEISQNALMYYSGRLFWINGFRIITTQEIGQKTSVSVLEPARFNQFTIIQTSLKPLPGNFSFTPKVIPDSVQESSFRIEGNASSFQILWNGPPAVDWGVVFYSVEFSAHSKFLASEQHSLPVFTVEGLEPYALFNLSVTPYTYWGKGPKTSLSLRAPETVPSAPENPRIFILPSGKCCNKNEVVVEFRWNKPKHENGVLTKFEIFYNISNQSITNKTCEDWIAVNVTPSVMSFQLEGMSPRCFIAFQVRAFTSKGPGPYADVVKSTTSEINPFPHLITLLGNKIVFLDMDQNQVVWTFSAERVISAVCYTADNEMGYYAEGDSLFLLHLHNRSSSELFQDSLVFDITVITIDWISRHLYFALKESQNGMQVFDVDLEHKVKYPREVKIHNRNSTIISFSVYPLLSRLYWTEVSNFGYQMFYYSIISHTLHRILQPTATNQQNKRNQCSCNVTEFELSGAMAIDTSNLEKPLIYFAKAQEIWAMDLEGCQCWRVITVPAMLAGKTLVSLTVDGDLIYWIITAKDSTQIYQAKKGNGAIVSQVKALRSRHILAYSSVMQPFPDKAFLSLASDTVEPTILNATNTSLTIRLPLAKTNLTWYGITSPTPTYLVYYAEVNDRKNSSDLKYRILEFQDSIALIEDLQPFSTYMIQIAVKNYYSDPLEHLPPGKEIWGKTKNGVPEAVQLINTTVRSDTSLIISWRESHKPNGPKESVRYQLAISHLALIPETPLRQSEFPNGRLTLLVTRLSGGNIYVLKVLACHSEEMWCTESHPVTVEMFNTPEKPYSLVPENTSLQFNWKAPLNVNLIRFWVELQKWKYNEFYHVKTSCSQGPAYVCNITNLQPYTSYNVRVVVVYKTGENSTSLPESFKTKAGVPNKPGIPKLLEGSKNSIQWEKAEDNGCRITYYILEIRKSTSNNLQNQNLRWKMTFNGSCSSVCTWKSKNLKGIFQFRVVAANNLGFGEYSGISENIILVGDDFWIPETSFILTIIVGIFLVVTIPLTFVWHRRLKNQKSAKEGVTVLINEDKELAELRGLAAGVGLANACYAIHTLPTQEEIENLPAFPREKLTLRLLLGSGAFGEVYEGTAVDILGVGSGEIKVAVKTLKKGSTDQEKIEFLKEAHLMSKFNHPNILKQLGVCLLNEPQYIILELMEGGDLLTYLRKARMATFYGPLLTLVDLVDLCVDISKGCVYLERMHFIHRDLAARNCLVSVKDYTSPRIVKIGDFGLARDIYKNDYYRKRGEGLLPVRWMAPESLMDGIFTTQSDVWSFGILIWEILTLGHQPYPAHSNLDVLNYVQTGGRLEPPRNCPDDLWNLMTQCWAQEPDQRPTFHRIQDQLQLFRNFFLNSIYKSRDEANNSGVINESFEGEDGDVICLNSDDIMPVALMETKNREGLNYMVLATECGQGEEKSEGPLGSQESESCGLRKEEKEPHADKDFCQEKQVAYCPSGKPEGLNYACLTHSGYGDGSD
MEASUREMENT_DESCRIPTION: radiometric filter-binding kinase assay, Kinase HotSpot
CONDITION_NOTES: compound 0.5 µM; ATP 10 µM
Supply the numeric figure in %, leaving out any unit text.

compound=CCCC(=O)Oc1ccc2[nH]c(C(=O)c3cc4ccccc4[nH]3)cc2c1 target_or_test_system=UniProt:P08922 measure="residual activity" value_observed=97
compound=Nc1ncnc2c1c(-c1ccc(Oc3ccccc3)cc1)cn2C1CCCC1 target_or_test_system=UniProt:P08922 measure="residual activity" value_observed=101
compound=Cc1ccc(NC2=CC(=O)c3sc(C)nc3C2=O)cc1 target_or_test_system=UniProt:P08922 measure="residual activity" value_observed=107
compound=O=c1cc(N2CCOCC2)oc2c1ccc1ccccc12 target_or_test_system=UniProt:P08922 measure="residual activity" value_observed=97
compound=CCC(=O)Nc1ccc2ncnc(Nc3cccc(Br)c3)c2c1 target_or_test_system=UniProt:P08922 measure="residual activity" value_observed=97.5

Prompt line: Please give the measured residual activity for this compound: CCN(CC)CCNC(=O)c1c(C)[nH]c(/C=C2\C(=O)Nc3ccc(F)cc32)c1C
Response line: 71.6

Prompt line: Request: c1ccc(-c2n[nH]cc2-c2ccnc3ccccc23)nc1
Response line: 102

Prompt line: Request: O=C(Nc1cccc(Nc2nccc(Nc3cccc(C(F)(F)F)c3)n2)c1)C1CC1
Response line: 65.5

Prompt line: Request: CCN(CC)CCNC(=O)c1c(C)[nH]c(/C=C2\C(=O)Nc3ccc(Cl)cc32)c1C
Response line: 43.9

Prompt line: Request: Cc1ccc(S(=O)(=O)/C=C/C#N)cc1
Response line: 94.1

Prompt line: Request: CC#CC(=O)Nc1cc2c(Nc3ccc(F)c(Cl)c3)ncnc2cn1
Response line: 91.3

Prompt line: Request: N#CC(C#N)=C(N)/C(C#N)=C/c1ccc(O)cc1
Response line: 97.1

---

TARGET_OR_TEST_SYSTEM: UniProtKB Q99759
Sequence (Q99759 whole entry, looked up): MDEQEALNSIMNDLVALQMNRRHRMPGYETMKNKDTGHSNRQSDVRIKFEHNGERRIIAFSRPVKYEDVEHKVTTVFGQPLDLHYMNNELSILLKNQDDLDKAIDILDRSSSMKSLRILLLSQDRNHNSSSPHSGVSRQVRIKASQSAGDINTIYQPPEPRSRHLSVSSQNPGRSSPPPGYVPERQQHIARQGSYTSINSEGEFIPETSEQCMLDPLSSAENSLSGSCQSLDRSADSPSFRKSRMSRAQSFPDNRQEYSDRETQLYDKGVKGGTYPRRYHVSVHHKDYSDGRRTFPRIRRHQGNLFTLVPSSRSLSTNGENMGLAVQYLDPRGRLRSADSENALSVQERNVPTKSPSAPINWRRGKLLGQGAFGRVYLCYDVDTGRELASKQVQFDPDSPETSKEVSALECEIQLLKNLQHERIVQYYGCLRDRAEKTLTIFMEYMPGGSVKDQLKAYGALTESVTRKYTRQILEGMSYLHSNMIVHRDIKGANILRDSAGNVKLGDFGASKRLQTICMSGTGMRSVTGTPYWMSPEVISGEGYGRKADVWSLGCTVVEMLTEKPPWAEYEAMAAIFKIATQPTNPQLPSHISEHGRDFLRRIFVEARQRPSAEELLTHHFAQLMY
MEASUREMENT_DESCRIPTION: radiometric filter-binding kinase assay, Kinase HotSpot
CONDITION_NOTES: compound 0.5 µM; ATP 10 µM
# key: entry, value: residual activity
Supply the numeric figure in %, leaving out any unit text.

Example molecules with recorded residual activity:
molecule=c1ccc(-c2n[nH]c3c2oc2ccccc23)cc1 unit_text=% value_observed=94.7
molecule=CCN(CC)C(=O)c1ccc(Nc2nc(OCC3CCCCC3)c3nc[nH]c3n2)cc1 unit_text=% value_observed=47.3
molecule="CO[C@H]1CC2CC[C@@H](C)[C@@](O)(O2)C(=O)C(=O)N2CCCC[C@H]2C(=O)OC([C@H](C)C[C@@H]2CC[C@@H](O)[C@H](OC)C2)CC(=O)[C@H](C)/C=C(\\C)[C@@H](O)[C@@H](OC)C(=O)[C@H](C)C[C@H](C)/C=C/C=C/C=C/1C (stereo partly specified)" unit_text=% value_observed=101

Prompt line: Please give the measured residual activity for this molecule: COc1ccc(COc2ccc(Cc3cnc(N)nc3N)cc2OC)cc1
Response line: 97.8

Prompt line: Request: COc1ccc2c(c[n+](C)c3c4cc5c(cc4ccc23)OCO5)c1OC
Response line: 101

Prompt line: Request: c1ccc(-c2n[nH]cc2-c2ccnc3ccccc23)nc1
Response line: 79.4

Prompt line: Request: O=C1Nc2ccc(Cl)cc2/C1=C/c1cc(Cl)c(O)c(Cl)c1
Response line: 101

Prompt line: Request: O=C1NC(=O)/C(=C/c2ccc3c(c2)OC(F)(F)O3)S1
Response line: 103
